B1: ZNF449 (parent)
chain: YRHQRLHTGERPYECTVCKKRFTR

Variants of: B1
assay.method.text: protein stability index of a GFP-peptide fusion (GPS, HEK-293T) (PSI 1-6); higher = more stable;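 further: lentivirally expressed fusions sorted by FACS into six bins by GFP to DsRed ratio, PSI derived from sequencing read proportions per bin multiplied by bin number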
condition.notes: c terminus: a fixed tail appended
readout.name: protein stability index

variant.identifier | observed.result
T8V | 2.29
L6C | 3.06
R2E | 2.65
K20N | 2.1
Y13H | 2.69
T16V | 2.07
V17I | 2.25
Y13N | 2.04
R21P | 2.46
R21I | 1.9
L6M | 2.37
Q4R | 2.36
Q4M | 1.73
H7D | 1.92
V17G | 2.63
Y1V | 2.45
R5W | 2.29
T23I | 2.76
E10G | 2.24
Y13S | 2.08
Y1M | 2.92
L6H | 2.73
Y1S | 3.05
R21T | 1.92
T8L | 1.97
P12F | 2.19
T8G | 2.38
T16M | 1.98
F22D | 2.94
T23V | 2.36
K19S | 1.74
F22E | 3.23
K19N | 2.19
G9N | 2.54
H7Y | 1.61
T23L | 2.71
R24G | 2.44
F22C | 3.46
P12K | 2.62
T23H | 2.78
H3D | 2.15
R2G | 2.92
K19R | 2.34
C15H | 3.33
E10M | 1.91
C18E | 3.48
R24I | 2.14
R2T | 1.8
T23M | 2.85
L6F | 2.17
R5H | 3
V17L | 2.56
G9W | 1.91
E14H | 2.52
T8P | 2.52
V17W | 2.28
H3T | 2.56
G9Q | 2.1
K20Y | 2.46
E14S | 2.69
R5K | 2.18
R11S | 2.43
R2F | 1.88
C15P | 3.4
E10F | 2.35
E14L | 2.38
K19T | 2.77
R11V | 1.85
V17R | 2.55
R5T | 1.69
Y1R | 3.05
R11I | 2.22
R24K | 3.32
Q4V | 2.13
K20A | 1.95
T16R | 2.51
H3E | 1.83
F22H | 3.21
Y13I | 2.09
K20H | 2.17
E14T | 2.44
T16N | 2.46
C15Y | 3.07
T8Y | 2.22
H3N | 2.69
E14I | 2.77
T8A | 2.32
Y1Q | 2.88
T8N | 2.56
R24H | 2.11
Y13D | 2.11
